B1: Nuclear receptor subfamily 1 group D member 2, residues 103 to 171; numbered along this chain, Q14995 (parent)
chain: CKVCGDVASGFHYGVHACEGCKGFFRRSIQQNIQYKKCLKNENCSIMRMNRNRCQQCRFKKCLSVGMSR

- Variants of: B1
- test.details: abundance fitness (aPCA) (normalised: wild type 0, dead -1); higher = more abundant; growth selection in yeast, the domain comes from the species named
- study.conditions: Homo sapiens
Threshold rule: abundance fitness greater than or equal to -0.1 is 1 (yes); below that, 0 (no).

1. S68F | 0 (no)
2. I33D | 0 (no)
3. K36L | 0 (no)
4. Q30R | 0 (no)
5. Q30P | 0 (no)

Record C57V ; criterion: abundance fitness no lower than -0.1. Met?
0 (no)

Record L39I ; criterion: abundance fitness no lower than -0.1. Met?
1 (yes)

Record M47T ; criterion: abundance fitness no lower than -0.1. Met?
1 (yes)

Record S64G ; criterion: abundance fitness no lower than -0.1. Met?
0 (no)

Record R48D ; criterion: abundance fitness no lower than -0.1. Met?
1 (yes)

Record V65F ; criterion: abundance fitness no lower than -0.1. Met?
0 (no)

Record F59W ; criterion: abundance fitness no lower than -0.1. Met?
0 (no)

Record N43F ; criterion: abundance fitness no lower than -0.1. Met?
0 (no)

Record N50P ; criterion: abundance fitness no lower than -0.1. Met?
0 (no)

Record S45N ; criterion: abundance fitness no lower than -0.1. Met?
1 (yes)

Record N50F ; criterion: abundance fitness no lower than -0.1. Met?
0 (no)

Record I29W ; criterion: abundance fitness no lower than -0.1. Met?
0 (no)
